- Tested on: SF-295 CNS
- measurement.notes: NCI tumour cell line growth inhibition, 48 h
outcome.measure: TGI (µM)
Lab book: enter the figure in µM, no units written.

CC(C)(C)C[C@H]1N[C@@H](C(=O)NC2CCC(O)CC2)[C@H](c2cccc(Cl)c2F)[C@@]12C(=O)Nc1cc(Cl)ccc12 (stereo not given in full) :: 13.6

In: Give TGI for COc1cc(C2CC(c3ccc(Nc4nc(NCCO)nc(NCCO)n4)cc3)=NN2c2cc(Cl)cc(Cl)c2)cc(OC)c1OC (stereo not given)
Out: 2.87

In: Give TGI for N#Cc1c(NC(=S)Nc2ccc(Cl)cc2)sc2c1CCN(N1CCc3c(sc(NC(=S)Nc4ccc(Cl)cc4)c3C#N)C1)C2
Out: 50.4

In: Give TGI for O=C1Nc2ccccc2/C1=C\c1c(Cl)n(-c2ccccc2)c2ccccc12
Out: 15.6

In: Give TGI for CCOC(=O)Nc1ccc2nc(-c3cscn3)[nH]c2c1
Out: 57.6

In: Give TGI for O=c1c(-c2ccc3c(c2)OCO3)coc2c3c(ccc12)OCO3
Out: 37.1

----------
- System: NCI-H23 lung
- measurement.notes: NCI tumour cell line growth inhibition, 48 h
outcome.measure: TGI

In: Give TGI for C=C1c2nc3ccccc3n2C=C(c2ccc(C)cc2)N1c1ccc(OC)cc1
Out: > 100 µM

----------
- System: SK-OV-3 ovarian
- measurement.notes: NCI tumour cell line growth inhibition, 48 h
Reported log10 of TGI values are given for each entry in this list.
// stored as log10 of TGI expressed in µM

COc1ccc(-n2c(=S)sc3c(Cl)nc(C)nc32)c(OC)c1 :: 1.44
O=C1Nc2ccccc2/C1=C\c1c(Cl)n(-c2ccccc2)c2ccccc12 :: 1.38
CC(C)(C)C[C@H]1N[C@@H](C(=O)NC2CCC(O)CC2)[C@H](c2cccc(Cl)c2F)[C@@]12C(=O)Nc1cc(Cl)ccc12 (stereo not given in full) :: 1.38
COc1cc2c(/C=C3\C(=O)Nc4ccccc43)c[nH]c2cc1C :: 0.51
COc1cc(CCNC2=CC(=O)c3nc[nH]c3C2=O)ccc1O :: 1.96
COc1ccc(N2C(=O)C3c4[nH]c5c(C)cccc5c4C4CCC(C(C)C)CC4C3C2=O)cc1 (stereo not given) :: 1.68
CCCCCCCC/C=C/CCCCCCCC1=NC(C)(C)CN1C(C)(C)CO :: 1.47
CC(=O)C(=Cc1cn(C)c(=O)n(C)c1=O)C(C)=O :: 2.51

In: Give log10 of TGI for Clc1ccc2c(NCCCCCCNc3ccnc4cc(Cl)ccc34)ccnc2c1
Out: 1.24

----------
- Tested on: SF-268 CNS
- measurement.notes: NCI tumour cell line growth inhibition, 48 h
Reported TGI values are given for each entry in this list.

Below, 5 compounds whose answers are already recorded.
COc1cc2c(/C=C3/C(=O)Nc4ccccc43)c(Cl)n(Cc3ccc(Cl)cc3)c2cc1C :: 21.3 µM
N#Cc1c(-c2ccc([N+](=O)[O-])cc2)c(C#N)c(=O)n(NS(=O)(=O)c2ccccc2)c1S :: > 100 µM
COc1ccc(-c2ccc(C3CC(c4ccccc4)=NN3)o2)c([N+](=O)[O-])c1 (stereo not given) :: > 100 µM
CC(=O)n1[nH]c(=O)n(-c2ccc(Cl)cc2)c1=O :: > 100 µM
CCOC(=O)c1c(-c2ccc(OC)cc2)ccn1C :: > 10 µM

In: Give TGI for COc1ccc(N2C(=O)C3c4[nH]c5c(C)cccc5c4C4CCC(C(C)C)CC4C3C2=O)cc1 (stereo not given)
Out: 22 µM

In: Give TGI for CC1OC(OC2C(O[C@H]3CC[C@@]4(C)C(=CC[C@H]5[C@@H]6C[C@@H]7O[C@]8(CC[C@@H](C)CO8)[C@@H](C)[C@@H]7[C@@]6(C)CC[C@@H]54)C3)OC(CO)C(O)C2OC2OC(CO)C(O)C(O)C2O)C(O)C(O)C1O (stereo not given in full)
Out: 3.7 µM

In: Give TGI for COc1ccc(CCNC(=O)Cc2ccccc2CO)cc1OC
Out: > 100 µM

In: Give TGI for COc1cc2c(cc1O)C1Cc3ccc(OC)c(O)c3C[N+]1(C)CC2 (stereo not given)
Out: > 100 µM

In: Give TGI for NC(=O)[C@H](Cc1ccc(O)cc1)Nc1c(O)c2c(c(O)c1Cl)C(=O)C=CC2=O
Out: > 10 µM

In: Give TGI for O=C1NC(O)c2cc3ccccc3cc2O1 (stereo not given)
Out: > 100 µM

In: Give TGI for CCN(CC)C(=S)SSC(C)C
Out: 37 µM

In: Give TGI for CC(C)(C)C1CCC2c3c([nH]c4ccccc34)C3C(=O)N(c4ccc([N+](=O)[O-])cc4)C(=O)C3C2C1 (stereo not given)
Out: 34.8 µM

Sourced from PubChem BioAssay (NCI)
